# system tested: T1, mouse serum albumin (mouse, UniProt P07724 25-608)
# T1 construct: mature; purified protein on CM5 chips for BIAcore; also called MSA; mouse SA
# T1 sequence (P07724 25-608): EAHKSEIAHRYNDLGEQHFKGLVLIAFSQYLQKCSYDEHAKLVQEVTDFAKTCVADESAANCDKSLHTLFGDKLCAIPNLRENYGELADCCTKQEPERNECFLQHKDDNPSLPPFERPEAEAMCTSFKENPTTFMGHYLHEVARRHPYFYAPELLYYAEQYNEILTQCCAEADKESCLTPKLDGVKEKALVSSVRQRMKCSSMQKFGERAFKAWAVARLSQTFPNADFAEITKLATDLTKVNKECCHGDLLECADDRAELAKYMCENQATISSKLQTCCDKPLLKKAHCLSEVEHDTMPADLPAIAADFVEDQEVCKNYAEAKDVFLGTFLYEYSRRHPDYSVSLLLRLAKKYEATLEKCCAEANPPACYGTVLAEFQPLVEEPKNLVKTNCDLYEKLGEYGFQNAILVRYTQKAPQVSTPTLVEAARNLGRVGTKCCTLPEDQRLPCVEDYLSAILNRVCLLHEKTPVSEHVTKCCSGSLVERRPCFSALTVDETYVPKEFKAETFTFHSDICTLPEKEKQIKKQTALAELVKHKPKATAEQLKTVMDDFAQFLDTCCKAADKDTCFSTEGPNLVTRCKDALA
# experiment summary: BIAcore SPR;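 note: purified dAbs run at 1 µM, 500 nM and 50 nM over human, cynomolgus, mouse and rat serum albumin in BIAcore binding measurements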
Task for the reader: assign each of the following binders its reported kon.
Your answer is read as M⁻¹ s⁻¹, so omit the unit and give the number.

// kon lookup, key: DOM7h-11-18 (other) VL: DIQMTQSPSSLSASVGDRVTITCRASRPIGTMLSWYQQKPGKAPKLLIWFGSRLQSGVPSRFSGSGSGTDFTLTISSLQPEDFATYHCAQAGTHPTTFGQGTKVEIKR 440000

Follow-up entry: DOM7h-14 (other, Vk dAb (AlbudAb)) VL: DIQMTQSPSSLSASVGDRVTITCRASQWIGSQLSWYQQKPGKAPKLLIMWRSSLQSGVPSRFSGSGSGTDFTLTISSLQPEDFATYYCAQGAALPRTFGQGTKVEIKR 4.1e+06

Follow-up entry: DOM7h-11-12 (other) VL: DIQMTQSPSSLSASVGDRVTITCRASRPIGTMLSWYQQKPGKAPKLLILFGSRLQSGVPSRFSGSGSGTDFTLTISSLQPEDFATYYCAQAGTHPTTFGQGTKVEIKR 1.53e+06

Follow-up entry: DOM7h-14-18 (other, Vk dAb (AlbudAb)) VL: DIQMTQSPSSLSASVGDRVTITCRASQWIGSQLSWYQQKPGKAPKLLIMWRSSLQSGVPSRFSGSGSGTDFTLTISSLQPEDFATYYCAQGLMKPMTFGQGTKVEIKR 2.28e+06
